Sourced from paper PMC5124248

molecular target: Aurora A (Homo sapiens, UniProt O14965); construct: gift from Professor Jia Li, Shanghai Institute of Materia Medica/Chinese Academy of Sciences; assay: HTRF KinEASE-STK kinase assay, Aurora A; type: biochemical; conditions: Table S1; read-out: IC50 Aurora A
Sequence (O14965 whole entry): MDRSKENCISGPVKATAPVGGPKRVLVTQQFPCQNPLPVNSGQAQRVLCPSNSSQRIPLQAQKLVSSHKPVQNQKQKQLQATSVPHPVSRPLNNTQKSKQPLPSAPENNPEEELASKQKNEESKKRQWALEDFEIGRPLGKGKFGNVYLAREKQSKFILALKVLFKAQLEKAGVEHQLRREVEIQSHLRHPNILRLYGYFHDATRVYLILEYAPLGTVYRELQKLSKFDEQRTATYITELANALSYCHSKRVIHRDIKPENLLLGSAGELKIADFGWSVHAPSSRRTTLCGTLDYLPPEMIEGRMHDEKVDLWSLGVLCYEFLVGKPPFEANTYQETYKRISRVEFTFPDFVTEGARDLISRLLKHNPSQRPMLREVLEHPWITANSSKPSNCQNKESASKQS
REPORTED_ENDPOINT: IC50 (nM)

1) CCc1cc2c(cn1)C(c1ccccc1Cl)=Nc1c(n[nH]c1C)N2 ... 100

---

test system: MKN-45 cells; assay: CCK-8 cell proliferation assay, MKN-45; type: cell-based; settings: Homo sapiens; MKN-45, CCK-8, Fig. 3
pIC50: −log10 of the molar value.
REPORTED_ENDPOINT: pIC50

1) CCc1cc2c(cn1)C(c1ccccc1Cl)=Nc1c(n[nH]c1C)N2 ... 6.89

---

test system: SNU-16 cells; test: CCK-8 cell proliferation assay, SNU-16; assay type: cell-based; conditions: Homo sapiens; SNU-16, CCK-8, Fig. 3
pIC50: −log10 of the molar value.
REPORTED_ENDPOINT: pIC50

1) CCc1cc2c(cn1)C(c1ccccc1Cl)=Nc1c(n[nH]c1C)N2 ... 7.05

---

biological target: Aurora B (Homo sapiens, UniProt Q96GD4); construct: gift from Professor Jia Li, Shanghai Institute of Materia Medica/Chinese Academy of Sciences; assay: HTRF KinEASE-STK kinase assay, Aurora B; assay type: biochemical; details: mean ± SD of three independent experiments; read-out: Aurora B IC50
Sequence (Q96GD4 whole entry): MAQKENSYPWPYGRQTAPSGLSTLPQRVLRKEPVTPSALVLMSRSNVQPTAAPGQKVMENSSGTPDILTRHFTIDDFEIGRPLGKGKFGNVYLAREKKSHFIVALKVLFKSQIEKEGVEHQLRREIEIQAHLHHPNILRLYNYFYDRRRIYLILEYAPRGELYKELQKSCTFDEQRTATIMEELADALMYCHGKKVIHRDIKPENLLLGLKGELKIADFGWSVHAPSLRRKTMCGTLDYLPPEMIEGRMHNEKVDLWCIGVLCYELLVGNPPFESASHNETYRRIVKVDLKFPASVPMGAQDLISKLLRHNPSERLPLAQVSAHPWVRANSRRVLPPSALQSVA
REPORTED_ENDPOINT: IC50 (nM)

1) CCc1cc2c(cn1)C(c1ccccc1Cl)=Nc1c(n[nH]c1C)N2 ... 93.9
